# Experiment Description: Toxicity in ip dosed mouse allografted with mouse S180 cells assessed as induction of death
# Assay type: organism-based, CCRF S-180
# Condition Parameters: in vivo
Quantity Kind: LD50

Problem: Give reported LD50 value for O=C(CNC(=O)[C@H](Cc1c[nH]c2ccccc12)NC(=O)[C@H](Cc1c[nH]c2ccccc12)NC(=O)c1cc2ccc(O)cc2oc1=O)OCc1ccccc1
Result: > 500 mg/kg

###

Reported Activity_index is given for each of the following compounds.
# Tested on: Mus musculus
# Experiment Description: Toxicity in mouse S180 cells allografted mouse assessed as spleen index at 1 umol/kg, ip for 7 consecutive days measured 24 hrs after last dose (reference value: 7.25 +/- 1.60)
# Type: organism-based, CCRF S-180
# Condition Parameters: in vivo
// keep it numeric: no unit symbol after the value

These solved cases illustrate the format of a correct answer.
CC(C)C[C@H](NC(=O)[C@H](Cc1c[nH]c2ccccc12)NC(=O)[C@H](Cc1c[nH]c2ccccc12)NC(=O)c1cc2ccc(O)cc2oc1=O)C(=O)OCc1ccccc1 = 5.41
O=C(CC[C@H](NC(=O)[C@H](Cc1c[nH]c2ccccc12)NC(=O)[C@H](Cc1c[nH]c2ccccc12)NC(=O)c1cc2ccc(O)cc2oc1=O)C(=O)OCc1ccccc1)OCc1ccccc1 = 7.34
O=C(O)c1cc2ccc(O)cc2oc1=O = 8.44

Now let's try a different one.
Problem: Could you please provide reported Activity_index for CC(C)[C@H](NC(=O)[C@H](Cc1c[nH]c2ccccc12)NC(=O)[C@H](Cc1c[nH]c2ccccc12)NC(=O)c1cc2ccc(O)cc2oc1=O)C(=O)OCc1ccccc1 ? Thanks!
Result: 6.97
